- assay.method.text: chemical genetic growth profiling, strain panel (AID 1159580);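 also: tested at 20 µM; growth read once vehicle control cultures reached saturation at 30 °C; lower values mean less growth of the strain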
- assay.context: S. cerevisiae deletion strains, growth OD, locus YNR052C, strain pop2
About 2,000 (36%) of roughly 5,500 compounds were called active. Another 18% or so got no clear call; they are omitted. Rule as the data show it: active = normalized growth mostly below about 0.91 (no sharp cut-off); inconclusive = no clear call, values can overlap the other calls; inactive = mostly above about 0.92. Some of the results follow.
// one of active, inactive, no free text

Hey, what did the test say about COc1cc([C@@H]2c3cc4c(cc3[C@H](OC(C)=O)[C@H]3COC(=O)[C@@H]23)OCO4)cc(OC)c1OC ? inactive

# repeat for CC(CN1c2ccccc2Sc2cccnc21)N(C)C (centres undefined) inactive

# repeat for S=P(N1CC1)(N1CC1)N1CC1 inactive

# repeat for CCN(CC)C(C)CN1c2ccccc2Sc2ccccc21 (centres undefined) inactive

# repeat for CC1(C)C(O)CC(O)C2(C)C1CC(O)C1(C)C2CCC2(C)C(c3ccoc3)OC(=O)C3OC321 (centres undefined) inactive

# repeat for c1ccc2c(c1)CN1CCCC1=N2 inactive

# repeat for C=C[C@H]1CN2CC[C@H]1C[C@@H]2[C@H](O)c1ccnc2ccccc12 inactive

# repeat for CSc1ccc2c(c1)N(CCC1CCCCN1C)c1ccccc1S2 (centres undefined) active

# repeat for CNC(=O)Oc1ccc2c(c1)[C@]1(C)CCN(C)[C@@H]1N2C inactive

# repeat for O=C(Nc1ccccc1)c1ccccc1O inactive

# repeat for CN(C)CCOC(=O)C(c1ccccc1)C1(O)CCCC1 (centres undefined) inactive

# repeat for CC(CN(C)C)CN1c2ccccc2CCc2ccccc21 (centres undefined) inactive

# repeat for CO[C@]12C[C@@H](COC(=O)c3cncc(Br)c3)CN(C)[C@@H]1Cc1cn(C)c3cccc2c13 inactive

# repeat for COc1cc2c(cc1-c1cc3cc4ccoc4cc3oc1=O)OCO2 inactive

# repeat for CN(C)CCOC(=O)COc1ccc(Cl)cc1 inactive

# repeat for NCC(CC(=O)O)c1ccc(Cl)cc1 (centres undefined) inactive

# repeat for COC(=O)CCCOc1ccc(Cl)cc1Cl inactive

# repeat for Cc1nc2ccccn2c(=O)c1CCN1CCC(C(=O)c2ccc(F)cc2)CC1 inactive

# repeat for O=c1cc(-c2ccccc2)oc2c(O)c(O)ccc12 inactive

# repeat for CC(CN1c2ccccc2Sc2ccccc21)N(C)C (centres undefined) inactive

# repeat for NS(=O)(=O)c1cc2c(cc1Cl)NC(C1CC3C=CC1C3)NS2(=O)=O (centres undefined) inactive

# repeat for O=C(O)CCCOc1ccc(Cl)cc1Cl inactive

# repeat for CC1(C)C(=O)C=C[C@@]2(C)C1CC(=O)[C@@]1(C)C3=CC(=O)O[C@@H](c4ccoc4)[C@]3(C)CCC12 (some centres undefined) inactive

# repeat for COc1cc2c(cc1/C=C/C(=O)c1cc(OC)c(OC)cc1OC)OCO2 inactive
